Recorded measurements of COMT activity (% of control), one per entry
Target Or Test System: mouse liver COMT (Mus musculus, UniProt O88587)
Construct: Aliquots of 0.5 ml of liver homogenates were preincubated; from tissue; host or cells: mouse liver homogenate (NMRI mice, dosed orally; ex vivo activity)
Sequence (O88587 whole entry): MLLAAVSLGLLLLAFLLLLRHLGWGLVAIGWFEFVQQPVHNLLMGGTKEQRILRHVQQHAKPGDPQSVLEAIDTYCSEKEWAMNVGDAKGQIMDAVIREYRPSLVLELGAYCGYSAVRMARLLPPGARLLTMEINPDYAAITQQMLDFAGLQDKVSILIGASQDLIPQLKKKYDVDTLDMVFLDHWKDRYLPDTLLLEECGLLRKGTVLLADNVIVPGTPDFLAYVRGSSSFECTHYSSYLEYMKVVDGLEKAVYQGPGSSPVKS
Assay Text: Mouse liver COMT activity after oral administration of test compounds
Type: in vivo
Cond: 3 mg/kg oral, 3 h after administration

Smiles Record	COMT activity (% of control)
Cc1c(Cl)c(C)[n+]([O-])c(Br)c1-c1noc(-c2cc(O)c(O)c([N+](=O)[O-])c2)n1	25.2 % of control
O=[N+]([O-])c1cc(-c2nc(-c3c[n+]([O-])ccc3C(F)(F)F)no2)cc(O)c1O	21.2 % of control
O=[N+]([O-])c1cc(-c2nc(-c3ccc(Cl)[n+]([O-])c3)no2)cc(O)c1O	43 % of control
O=[N+]([O-])c1cc(-c2nc(Cc3ccc(C(F)(F)F)[n+]([O-])c3)no2)cc(O)c1O	27.2 % of control
O=[N+]([O-])c1cc(-c2nc(-c3cc[n+]([O-])c4ccccc34)no2)cc(O)c1O	88.6 % of control
O=[N+]([O-])c1cc(-c2nc(-c3cc[n+]([O-])cc3)no2)cc(O)c1O	42.1 % of control
Cc1cc(-c2noc(-c3cc(O)c(O)c([N+](=O)[O-])c3)n2)cc(C)[n+]1[O-]	79.2 % of control
CSc1cc(-c2noc(-c3cc(O)c(O)c([N+](=O)[O-])c3)n2)cc[n+]1[O-]	89.9 % of control

---

Target Or Test System: mouse liver COMT (Mus musculus, UniProt O88587)
Construct: Aliquots of 0.5 ml of liver homogenates were preincubated; from tissue; host or cells: mouse liver homogenate (NMRI mice, dosed orally; ex vivo activity)
Assay Text: Mouse liver COMT activity after oral administration of test compounds
Assay type: in vivo
Cond: 3 mg/kg oral, 3 h after administration

Compound	Target Or Test System	COMT activity (% of control)
O=[N+]([O-])c1cc(-c2nc(-c3ccc[n+]([O-])c3C(F)(F)F)no2)cc(O)c1O	mouse liver COMT (Mus musculus, UniProt O88587)	9.4 % of control
O=[N+]([O-])c1cc(-c2nc(-c3cc4ccccc4[n+]([O-])c3)no2)cc(O)c1O	mouse liver COMT (Mus musculus, UniProt O88587)	81.2 % of control
Cc1ccc(C(=O)c2cc(O)c(O)c([N+](=O)[O-])c2)cc1 [Tolcapone, reference compound]	mouse liver COMT (Mus musculus, UniProt O88587)	13.9 % of control
O=[N+]([O-])c1cc(-c2nc(-c3ccc[n+]([O-])c3)no2)cc(O)c1O	mouse liver COMT (Mus musculus, UniProt O88587)	58.4 % of control
Cc1c(-c2noc(-c3cc(O)c(O)c([N+](=O)[O-])c3)n2)c(C(F)(F)F)cc(-c2ccccc2)[n+]1[O-]	mouse liver COMT (Mus musculus, UniProt O88587)	9.7 % of control
O=[N+]([O-])c1cc(-c2nc(-c3cccc[n+]3[O-])no2)cc(O)c1O	mouse liver COMT (Mus musculus, UniProt O88587)	101.0 % of control
Cc1cc(C(F)(F)F)c(-c2noc(-c3cc(O)c(O)c([N+](=O)[O-])c3)n2)c(C)[n+]1[O-]	mouse liver COMT (Mus musculus, UniProt O88587)	0.8 % of control
CS(=O)(=O)c1cc(-c2noc(-c3cc(O)c(O)c([N+](=O)[O-])c3)n2)cc[n+]1[O-]	mouse liver COMT (Mus musculus, UniProt O88587)	85.9 % of control
O=[N+]([O-])c1cc(-c2nc(-c3c(Cl)c[n+]([O-])cc3Cl)no2)cc(O)c1O	mouse liver COMT (Mus musculus, UniProt O88587)	14.2 % of control
Cc1cc(C(F)(F)F)c(-c2noc(-c3cc(O)c(O)c([N+](=O)[O-])c3)n2)c[n+]1[O-]	mouse liver COMT (Mus musculus, UniProt O88587)	8.8 % of control
Cc1ccc(-c2noc(-c3cc(O)c(O)c([N+](=O)[O-])c3)n2)c(Br)[n+]1[O-]	mouse liver COMT (Mus musculus, UniProt O88587)	22.9 % of control
O=[N+]([O-])c1cc(-c2nc(-c3ccc(C(F)(F)F)[n+]([O-])c3)no2)cc(O)c1O	mouse liver COMT (Mus musculus, UniProt O88587)	11.3 % of control
O=[N+]([O-])c1cc(-c2nc(-c3cc(Br)c[n+]([O-])c3)no2)cc(O)c1O	mouse liver COMT (Mus musculus, UniProt O88587)	45.2 % of control
Cc1cc(C)[n+]([O-])c(Br)c1-c1noc(-c2cc(O)c(O)c([N+](=O)[O-])c2)n1	mouse liver COMT (Mus musculus, UniProt O88587)	16.3 % of control
Cc1cc(C(F)(F)F)c(-c2noc(-c3cc(O)c(O)c([N+](=O)[O-])c3)n2)c(-c2ccccc2)[n+]1[O-]	mouse liver COMT (Mus musculus, UniProt O88587)	39.8 % of control
O=[N+]([O-])c1cc(-c2nc(-c3cc[n+]([O-])c(Sc4ccccc4)c3)no2)cc(O)c1O	mouse liver COMT (Mus musculus, UniProt O88587)	102.3 % of control
Cc1c(Cl)c(C)[n+]([O-])c(Cl)c1-c1noc(-c2cc(O)c(O)c([N+](=O)[O-])c2)n1	mouse liver COMT (Mus musculus, UniProt O88587)	30.4 % of control
O=[N+]([O-])c1cc(-c2nc(COc3ccc(C(F)(F)F)c[n+]3[O-])no2)cc(O)c1O	mouse liver COMT (Mus musculus, UniProt O88587)	24.5 % of control
Cc1c(-c2noc(-c3cc(O)c(O)c([N+](=O)[O-])c3)n2)c[n+]([O-])c(C)c1C	mouse liver COMT (Mus musculus, UniProt O88587)	43.1 % of control
O=[N+]([O-])c1cc(-c2nc(Cc3ccc[n+]([O-])c3)no2)cc(O)c1O	mouse liver COMT (Mus musculus, UniProt O88587)	53.8 % of control
O=[N+]([O-])c1cc(-c2nc(-c3cc[n+]([O-])c(Cl)c3)no2)cc(O)c1O	mouse liver COMT (Mus musculus, UniProt O88587)	55.4 % of control
O=[N+]([O-])c1cc(-c2nc(-c3ccc[n+]([O-])c3Cl)no2)cc(O)c1O	mouse liver COMT (Mus musculus, UniProt O88587)	71.8 % of control
Cc1c(C)c(C)[n+]([O-])c(Br)c1-c1noc(-c2cc(O)c(O)c([N+](=O)[O-])c2)n1	mouse liver COMT (Mus musculus, UniProt O88587)	55.2 % of control
O=[N+]([O-])c1cc(-c2nc(-c3cc[n+]([O-])c(N4CCOCC4)c3)no2)cc(O)c1O	mouse liver COMT (Mus musculus, UniProt O88587)	63.9 % of control
Cc1ccc(-c2noc(-c3cc(O)c(O)c([N+](=O)[O-])c3)n2)c(Cl)[n+]1[O-]	mouse liver COMT (Mus musculus, UniProt O88587)	23.1 % of control
O=[N+]([O-])c1cc(-c2nc(-c3cc[n+]([O-])c(-c4ccoc4)c3)no2)cc(O)c1O	mouse liver COMT (Mus musculus, UniProt O88587)	95.2 % of control
O=[N+]([O-])c1cc(-c2nc(-c3cc[n+]([O-])c(-c4ccccc4)c3)no2)cc(O)c1O	mouse liver COMT (Mus musculus, UniProt O88587)	80.6 % of control
O=[N+]([O-])c1cc(-c2nc(-c3cc[n+]([O-])c(Oc4ccccc4)c3)no2)cc(O)c1O	mouse liver COMT (Mus musculus, UniProt O88587)	76.8 % of control
CSc1ccc(-c2noc(-c3cc(O)c(O)c([N+](=O)[O-])c3)n2)c[n+]1[O-]	mouse liver COMT (Mus musculus, UniProt O88587)	47.5 % of control
Cc1cc[n+]([O-])cc1-c1noc(-c2cc(O)c(O)c([N+](=O)[O-])c2)n1	mouse liver COMT (Mus musculus, UniProt O88587)	95.6 % of control

---

Below, each entry is listed alongside its reported Rat Liver COMT activity (% control).
Target Or Test System: rat liver COMT (Rattus norvegicus, UniProt P22734)
Construct: the organs were immediately removed and homogenised in 5 mM phosphate buffer of pH 7.8; from tissue; host or cells: rat liver homogenate (Wistar rats, dosed orally; ex vivo activity)
Sequence (P22734 whole entry): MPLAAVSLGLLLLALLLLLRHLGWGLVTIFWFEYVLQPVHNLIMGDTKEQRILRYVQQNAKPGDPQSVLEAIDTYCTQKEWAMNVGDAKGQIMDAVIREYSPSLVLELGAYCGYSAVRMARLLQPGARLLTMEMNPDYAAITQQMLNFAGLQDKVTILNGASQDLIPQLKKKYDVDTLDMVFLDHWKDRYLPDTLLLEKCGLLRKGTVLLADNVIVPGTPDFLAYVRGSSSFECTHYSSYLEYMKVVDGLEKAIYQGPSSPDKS
Assay Text: Rat liver COMT activity after oral administration of test compounds
Format: in vivo
Cond: 3 mg/kg oral, 1 h after administration

Smiles Record	Unit Label	Rat Liver COMT activity (% control)
O=[N+]([O-])c1cc(-c2nc(-c3c[n+]([O-])ccc3C(F)(F)F)no2)cc(O)c1O	% control	5.2
O=[N+]([O-])c1cc(-c2nc(Cc3ccc(C(F)(F)F)[n+]([O-])c3)no2)cc(O)c1O	% control	16.1
Cc1c(-c2noc(-c3cc(O)c(O)c([N+](=O)[O-])c3)n2)ccc(C(F)(F)F)[n+]1[O-]	% control	1.2
Cc1c(C)c(C)[n+]([O-])c(Cl)c1-c1noc(-c2cc(O)c(O)c([N+](=O)[O-])c2)n1	% control	21.2
